# System: T1, Antigen CD66c (CEACAM6; Sino Biological, Inc.) (UniProt P40199 35-320)
# T1 construct: Bought antigen coated on the ELISA plate; construct not described; also called CD66c antigen; CECACAM6
# T1 sequence (looked up): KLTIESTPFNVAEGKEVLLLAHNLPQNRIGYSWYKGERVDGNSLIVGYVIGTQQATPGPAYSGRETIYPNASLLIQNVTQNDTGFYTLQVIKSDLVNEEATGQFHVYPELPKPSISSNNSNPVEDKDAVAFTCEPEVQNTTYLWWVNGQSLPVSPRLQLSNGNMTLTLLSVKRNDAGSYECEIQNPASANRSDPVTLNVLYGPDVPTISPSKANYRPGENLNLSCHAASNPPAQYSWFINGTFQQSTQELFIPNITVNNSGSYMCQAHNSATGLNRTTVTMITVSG
# Assay notes: ELISA, coated CEACAM6 100 ng/well, antibody 4.57 ng/ml
Endpoint label: OD 450 nm (OD)
Give just the numeric value; OD need not be written.

Binder: anti-CD66c chimeric antibody 8F5 (antibody, human IgG1, V domains shown, also called chimeric 8F5 antibody; chi 8F5) VH: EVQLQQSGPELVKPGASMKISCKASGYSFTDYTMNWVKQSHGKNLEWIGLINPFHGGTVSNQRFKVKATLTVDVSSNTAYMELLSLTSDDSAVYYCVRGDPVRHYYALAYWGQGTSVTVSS VL: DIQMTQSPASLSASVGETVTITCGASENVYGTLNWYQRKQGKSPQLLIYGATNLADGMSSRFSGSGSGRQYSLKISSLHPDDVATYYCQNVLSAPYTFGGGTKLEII
OD 450 nm [OD]: 0.8

query: If you can, please state the reported OD 450 nm value of recombinant humanized anti-CD66c antibody Protein ID 3007 (Vk7 + VH6) (antibody, human IgG1, V domains shown, also called hu 3007; #43) VH: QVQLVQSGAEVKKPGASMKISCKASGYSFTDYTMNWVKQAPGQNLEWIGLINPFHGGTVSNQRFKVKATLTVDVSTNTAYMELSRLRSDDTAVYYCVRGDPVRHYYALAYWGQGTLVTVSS VL: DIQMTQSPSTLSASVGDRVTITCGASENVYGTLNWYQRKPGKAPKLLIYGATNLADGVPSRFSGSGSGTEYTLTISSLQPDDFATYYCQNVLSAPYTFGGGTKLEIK .
result: 1.02
